src = ChEMBL document CHEMBL5058577

System: Fibroblast
assay.overview: Multiplex assay against human fibroblast
Format: toxicity, cell-based
condition.info: 12 h, 1 µM, compound concentration 1 uM, replicate 1
quantity.measured: Population Fragmented Nuclei (%)
Write the value in % as a bare number.

So what's the measured Population Fragmented Nuclei (%) for this one? Cl.N=C(N)NC(=O)Cc1c(Cl)cccc1Cl [GUANFACINE HYDROCHLORIDE]
20

So what's the measured Population Fragmented Nuclei (%) for this one? "CC(/C=C1\SC(=S)N(CCCC(=O)Nc2ccc(C(=O)O)c(O)c2)C1=O)=C\c1ccccc1"
14

So what's the measured Population Fragmented Nuclei (%) for this one? COC[C@@H](c1ccc(C(F)(F)F)cc1)N1CCN(C2(C)CCN(C(=O)c3c(C)ncnc3C)CC2)C[C@@H]1C.O=C(O)/C=C\C(=O)O [VICRIVIROC MALEATE]
23

So what's the measured Population Fragmented Nuclei (%) for this one? "O=C1[C@H](Cc2ccc(O)cc2)N2C(=O)CCN(C(=O)NCc3ccccc3)[C@H]2CN1Cc1cccc2ccccc12"
18

* * *

Consider the following compounds; for each one, report its Population Pyknosed Nuclei (%).
Tested on: U2OS
assay.overview: Multiplex assay against U2OS
Type: toxicity, cell-based
condition.info: human, 48 h, 10 µM, compound concentration 10 uM, replicate 2
Write the value in % as a bare number.

So what's the measured Population Pyknosed Nuclei (%) for this one? Cl.NCCc1ccc(O)c(O)c1 [DOPAMINE HYDROCHLORIDE]
8

So what's the measured Population Pyknosed Nuclei (%) for this one? "O=C1[C@H](Cc2ccc(O)cc2)N2C(=O)CCN(C(=O)NCc3ccccc3)[C@H]2CN1Cc1cccc2ccccc12"
20

So what's the measured Population Pyknosed Nuclei (%) for this one? "CC(C)COc1ccc(CNC(=O)N(Cc2ccc(F)cc2)C2CCN(C)CC2)cc1"
45

So what's the measured Population Pyknosed Nuclei (%) for this one? "CCCOc1ccc2[nH]cc(C3=CCNCC3)c2n1.Cl"
7

So what's the measured Population Pyknosed Nuclei (%) for this one? "O=C(CCCc1ccccc1)Nc1nc2ccccc2c(=O)s1"
12

So what's the measured Population Pyknosed Nuclei (%) for this one? "CN[C@@H](C)C(=O)N[C@H](C(=O)N1CCC[C@H]1C(=O)Nc1snnc1-c1ccccc1)C1CCCCC1"
45

So what's the measured Population Pyknosed Nuclei (%) for this one? "N#Cc1cc(F)cc(-c2nc(-c3ccc(F)cn3)no2)c1"
5

So what's the measured Population Pyknosed Nuclei (%) for this one? "Cc1onc(-c2ccccc2Cl)c1C(=O)N(C)c1ccc(Cl)cc1"
11

So what's the measured Population Pyknosed Nuclei (%) for this one? "CCc1cc2cc(NS(=O)(=O)c3ccc(C#N)cc3)ccc2n(CC)c1=O"
11

So what's the measured Population Pyknosed Nuclei (%) for this one? Cl.N=C(N)NC(=O)Cc1c(Cl)cccc1Cl [GUANFACINE HYDROCHLORIDE]
11

So what's the measured Population Pyknosed Nuclei (%) for this one? Cc1sc2c(c1C)C(c1ccc(Cl)cc1)=N[C@@H](CC(=O)NCCCCCCCCNC(=O)COc1cccc3c1C(=O)N(C1CCC(=O)NC1=O)C3=O)c1nnc(C)n1-2 (stereo not given in full)
4

So what's the measured Population Pyknosed Nuclei (%) for this one? CCCCCC(O)/C=C/[C@H]1C(=O)CC(O)C1C/C=C\CCCC(=O)O (stereo not given in full)
7

So what's the measured Population Pyknosed Nuclei (%) for this one? "COc1cccc2c1c(NS(=O)(=O)c1ccc(Cl)s1)nn2Cc1cccc(CNC(=O)C(C)(C)O)c1"
5

So what's the measured Population Pyknosed Nuclei (%) for this one? "CC(/C=C1\SC(=S)N(CCCC(=O)Nc2ccc(C(=O)O)c(O)c2)C1=O)=C\c1ccccc1"
10

So what's the measured Population Pyknosed Nuclei (%) for this one? COC[C@@H](c1ccc(C(F)(F)F)cc1)N1CCN(C2(C)CCN(C(=O)c3c(C)ncnc3C)CC2)C[C@@H]1C.O=C(O)/C=C\C(=O)O [VICRIVIROC MALEATE]
12

* * *

Tested on: U2OS
assay.overview: Multiplex assay against U2OS
Type: toxicity, cell-based
condition.info: human, 24 h, 10 µM, compound concentration 10 uM, replicate 2
Consider the following compounds; for each one, report its Population Membrane Permeable-Phenotype (%).
Write the value in % as a bare number.

What measured Population Membrane Permeable-Phenotype (%) is associated with "CN(C)C(=O)Cn1cc(-c2ccc(-c3cncc4ccccc34)cc2)cn1" on U2OS?
16

What measured Population Membrane Permeable-Phenotype (%) is associated with CC[C@@H](C)Nc1nc(C)nc2c(-c3ccc(OC)nc3C)c(C)nn12 [PEXACERFONT] on U2OS?
7

What measured Population Membrane Permeable-Phenotype (%) is associated with CN[C@@H](C)C(=O)N[C@H](C(=O)N1CCC[C@H]1C(=O)Nc1snnc1-c1ccccc1)C1CCCCC1 [GDC-0152] on U2OS?
59

What measured Population Membrane Permeable-Phenotype (%) is associated with "Cc1onc(-c2ccccc2Cl)c1C(=O)N(C)c1ccc(Cl)cc1" on U2OS?
8

* * *

Consider the following compounds; for each one, report its Population Hoechst High Intensity Objects (%).
Test system: Fibroblast
assay.overview: Multiplex assay against human fibroblast
Type: toxicity, cell-based
condition.info: 48 h, 1 µM, compound concentration 1 uM, replicate 2
Write the value in % as a bare number.

So what's the measured Population Hoechst High Intensity Objects (%) for this one? "CC(C)(C)c1cc(NC(=O)Nc2ccc(-c3cn4c(n3)sc3cc(OCCN5CCOCC5)ccc34)cc2)no1"
3

So what's the measured Population Hoechst High Intensity Objects (%) for this one? "C[C@H](N)COC(=O)[C@@H](CCCCN)NC(=O)Cc1c(-c2ccc3ccccc3c2)[nH]c2c1ccc1ccccc12"
2

So what's the measured Population Hoechst High Intensity Objects (%) for this one? "COc1cccc2c1c(NS(=O)(=O)c1ccc(Cl)s1)nn2Cc1cccc(CNC(=O)C(C)(C)O)c1"
2

So what's the measured Population Hoechst High Intensity Objects (%) for this one? "Cc1c(CC(=O)O)c2cccnc2n1Cc1ccc(S(C)(=O)=O)cc1C(F)(F)F"
6

So what's the measured Population Hoechst High Intensity Objects (%) for this one? "CC(C)c1noc(N2CCC(COc3ccc(-c4ccc(S(C)(=O)=O)cc4)nc3)CC2)n1"
8

So what's the measured Population Hoechst High Intensity Objects (%) for this one? "CC(C)COc1ccc(CNC(=O)N(Cc2ccc(F)cc2)C2CCN(C)CC2)cc1"
5

So what's the measured Population Hoechst High Intensity Objects (%) for this one? "CC(=O)Nc1cccc2c1c(Sc1ccc(Cl)cc1)c(C)n2CC(=O)O"
3

So what's the measured Population Hoechst High Intensity Objects (%) for this one? "NCCc1cn(S(=O)(=O)c2c(Cl)nc3sccn23)c2ccccc12.O=C(O)C(=O)O"
6

So what's the measured Population Hoechst High Intensity Objects (%) for this one? "CC[C@@H](C)Nc1nc(C)nc2c(-c3ccc(OC)nc3C)c(C)nn12"
1

So what's the measured Population Hoechst High Intensity Objects (%) for this one? "CN1CCN(c2cc(-c3ccccc3)nc(N)n2)CC1"
3

So what's the measured Population Hoechst High Intensity Objects (%) for this one? "N#Cc1c(Oc2cccc(OS(=O)(=O)CCCC(F)(F)F)c2)cccc1C(F)(F)F"
5

So what's the measured Population Hoechst High Intensity Objects (%) for this one? "Cc1noc(-c2ccc(-c3ccc(CC(=O)O)cc3)cc2)c1NC(=O)O[C@H](C)c1ccccc1Cl"
2

So what's the measured Population Hoechst High Intensity Objects (%) for this one? "CCCOc1ccc2[nH]cc(C3=CCNCC3)c2n1.Cl"
4

So what's the measured Population Hoechst High Intensity Objects (%) for this one? "Cc1cnc(-c2cc(N3CCN(C(=O)CCS(C)(=O)=O)CC3)ncc2Cl)c(C)c1"
5

So what's the measured Population Hoechst High Intensity Objects (%) for this one? Br.CS(=O)(=O)Nc1c(O)ccc2c1CCCC2C1=NCCN1 (stereo not drawn)
5

So what's the measured Population Hoechst High Intensity Objects (%) for this one? "Cc1onc(-c2ccccc2Cl)c1C(=O)N(C)c1ccc(Cl)cc1"
11

So what's the measured Population Hoechst High Intensity Objects (%) for this one? "CN[C@@H](C)C(=O)N[C@H](C(=O)N1CCC[C@H]1C(=O)Nc1snnc1-c1ccccc1)C1CCCCC1"
5

So what's the measured Population Hoechst High Intensity Objects (%) for this one? "CCCCC(=O)N(Cc1ccc(-c2ccccc2-c2nnn[nH]2)cc1)[C@H](C(=O)O)C(C)C"
3

* * *

Test system: Fibroblast
assay.overview: Multiplex assay against human fibroblast
Assay type: toxicity, cell-based
condition.info: 48 h, 1 µM, compound concentration 1 uM, replicate 2
quantity.measured: Total Cell Count
Response field accepts a number only; no unit should be typed.

So what's the measured Total Cell Count for this one? "CC(C)COc1ccc(CNC(=O)N(Cc2ccc(F)cc2)C2CCN(C)CC2)cc1"
167

So what's the measured Total Cell Count for this one? "NCCc1cn(S(=O)(=O)c2c(Cl)nc3sccn23)c2ccccc12.O=C(O)C(=O)O"
166

So what's the measured Total Cell Count for this one? "C[C@H](N)COC(=O)[C@@H](CCCCN)NC(=O)Cc1c(-c2ccc3ccccc3c2)[nH]c2c1ccc1ccccc12"
169

So what's the measured Total Cell Count for this one? O=C(NCCN1CCC(n2c(=O)[nH]c3cc(Cl)ccc32)CC1)c1ccc(F)cc1 [HALOPEMIDE]
99

So what's the measured Total Cell Count for this one? "CC(/C=C1\SC(=S)N(CCCC(=O)Nc2ccc(C(=O)O)c(O)c2)C1=O)=C\c1ccccc1"
159

So what's the measured Total Cell Count for this one? "N#Cc1c(Oc2cccc(OS(=O)(=O)CCCC(F)(F)F)c2)cccc1C(F)(F)F"
133

So what's the measured Total Cell Count for this one? Br.CS(=O)(=O)Nc1c(O)ccc2c1CCCC2C1=NCCN1 (stereo not drawn)
177

So what's the measured Total Cell Count for this one? "CC(C)c1noc(N2CCC(COc3ccc(-c4ccc(S(C)(=O)=O)cc4)nc3)CC2)n1"
156

So what's the measured Total Cell Count for this one? "CN(C)C(=O)Cn1cc(-c2ccc(-c3cncc4ccccc34)cc2)cn1"
141

So what's the measured Total Cell Count for this one? "COc1cccc2c1c(NS(=O)(=O)c1ccc(Cl)s1)nn2Cc1cccc(CNC(=O)C(C)(C)O)c1"
99

So what's the measured Total Cell Count for this one? "Cc1onc(-c2ccccc2Cl)c1C(=O)N(C)c1ccc(Cl)cc1"
188

So what's the measured Total Cell Count for this one? Cl.N=C(N)NC(=O)Cc1c(Cl)cccc1Cl [GUANFACINE HYDROCHLORIDE]
145

So what's the measured Total Cell Count for this one? "CCCCC(=O)N(Cc1ccc(-c2ccccc2-c2nnn[nH]2)cc1)[C@H](C(=O)O)C(C)C"
155

So what's the measured Total Cell Count for this one? "CC(=O)Nc1cccc2c1c(Sc1ccc(Cl)cc1)c(C)n2CC(=O)O"
129

So what's the measured Total Cell Count for this one? "Cc1cccc(NC(=O)CN2CCC(c3ccccn3)CC2)c1.Cl.Cl"
229

So what's the measured Total Cell Count for this one? Cc1sc2c(c1C)C(c1ccc(Cl)cc1)=N[C@@H](CC(=O)NCCCCCCCCNC(=O)COc1cccc3c1C(=O)N(C1CCC(=O)NC1=O)C3=O)c1nnc(C)n1-2 (stereo partly drawn)
85

So what's the measured Total Cell Count for this one? "O=C1[C@H](Cc2ccc(O)cc2)N2C(=O)CCN(C(=O)NCc3ccccc3)[C@H]2CN1Cc1cccc2ccccc12"
135

So what's the measured Total Cell Count for this one? "Cc1c(CC(=O)O)c2cccnc2n1Cc1ccc(S(C)(=O)=O)cc1C(F)(F)F"
157
